target: K-Ras G12C (Homo sapiens, UniProt P01116, G12C)
Construct: This protein contained 188 amino acids in total, including an N-terminal 6-Histidine tag; made in house; host or cells: E. coli BL21
procedure_details: CAF assay (% CAF; method in Example 7, not in this part)
Format: binding
applied_conditions: 10 μM, 1 h; Table 4
% CAF @ 10 μM, 1 h values for the compounds below.
Use % as the unit, but write only the number.

INSERT INTO results (smiles_text, reported) VALUES
  ('C=CC(=O)N1CCN(c2nc(=O)n3c4c(c(-c5ccc(F)cc5F)c(Cl)cc24)SC[C@H]3CCCN2C[C@@H]3C[C@H]2CO3)[C@@H](C)C1', 96.5),
  ('C=CC(=O)N1CCN(c2nc(=O)n3c4c(c(-c5ccc(F)cc5F)c(C(F)(F)F)cc24)SC[C@@H]3CN2CCN(CC)CC2)[C@@H](C)C1', 95),
  ('C=CC(=O)N1C2CC(=O)CC1CN(c1nc(=O)n3c4c(c(-c5ccc(F)cc5F)c(C(F)(F)F)cc14)OCCC3)C2', 95.3),
  ('C=CC(=O)N1CCN(c2nc(=O)n3c4c(c(-c5c(F)cc(F)cc5F)c(Cl)cc24)SC[C@H]3CC2CCN(C)CC2)[C@@H](C)C1', 94.8),
  ('C=CC(=O)N1CCN(c2nc(=O)n3c4c(c(-c5ccc(F)cc5F)c(Cl)cc24)SC[C@H]3COC)[C@@H](C)C1', 94.5);

Name the reported % CAF @ 10 μM, 1 h value associated with the compound C=CC(=O)N1CCN(c2nc(=O)n3c4c(c(-c5ccc(F)cc5)c(Cl)cc24)SC[C@H]3CC2CCN(CC(F)F)CC2)[C@@H](C)C1 94

###

target: Cys12 of the KRAS 4B G12C protein (Homo sapiens, UniProt P01116, G12C)
Construct: This protein contained 188 amino acids in total, including an N-terminal 6-Histidine tag; made in house; host or cells: E. coli BL21
procedure_details: In vitro covalent adduct formation (CAF) assay, LC-MS intact mass
Type: binding
applied_conditions: 10 uM compound, 60 min
Note to self: values exactly at 90% are class 1. So % CAF 10 uM @ 60 min at or above 90% is class 1, below is class 0.

Solved cases (3 shown):
INSERT INTO measurements (compound, discrete_label) VALUES
  ('[2H]C([2H])=C([2H])C(=O)N1C[C@H](C)N(c2nc(=O)n3c4c(c(-c5cc(Cl)c(F)cc5F)c(C(F)(F)F)cc24)SCC2(COC2)C3)C[C@H]1C (atropisomer, axis not shown) [Example 1434]', 'class 0'),
  ('C=CC(=O)N1C[C@H](C)N(c2nc(=O)n3c4c(c(-c5cccc6cnn(C)c56)c(C(F)(F)F)cc24)SC[C@@H]3CN2CCN(CC)CC2)C[C@H]1C (atropisomer, axis not shown) [Example 1381]', 'class 0'),
  ('C=CC(=O)N1C2CCC1CN(c1nc(=O)n3c4c(c(-c5cc(Cl)c(F)cc5F)c(C(F)(F)F)cc14)SC[C@@H]3COC)C2 [Example 1394]', 'class 1');

Now consider a different compound.
Would you say C=CC(=O)N1[C@H](C)CN(c2nc(=O)n3c4c(c(-c5ccc(F)cc5)c(C(F)(F)F)cc24)SCC(COC)(COC)C3)C[C@@H]1C shows % CAF 10 uM @ 60 min at minimum 90%? class 1
